- System: Plasmodium falciparum
- Experiment: Antimalarial activity after 96 hrs against azithromycin-resistant Plasmodium falciparum 7G8 by [3H]hypoxanthine uptake
- Assay type: functional, organism-based
Measurement Name: IC50 (µM)

- Smiles Input: "CC[C@H]1OC(=O)[C@H](C)[C@@H](O[C@H]2C[C@@](C)(OC)[C@@H](O)[C@H](C)O2)[C@H](C)[C@@H](O[C@@H]2O[C@H](C)C[C@H](N(C)C)[C@H]2O)[C@](C)(O)C[C@@H](C)C(=O)[C@H](C)[C@@H](O)[C@]1(C)O"
  Value Observed: 39.5
